Tested on: Hep3B (human hepatoma cell line)
Assay: Cell death detection, trypan blue exclusion assay, Hep3B
Assay type: cell-based
Details: 5-day treatment, 0.25 uM
outcomeMeasure: Cell Death (%) at Tested Concentration

- inputSmiles: "CNC(=O)c1cc(Oc2ccc(NC(=O)Nc3ccc(Cl)c(S(F)(F)(F)(F)F)c3)c(F)c2)ccn1"
  quantityUnit: "%"
  assayResult: 4.6
- inputSmiles: "CNC(=O)c1cc(Oc2ccc(NC(=O)Nc3cccc(S(F)(F)(F)(F)F)c3)c(F)c2)ccn1"
  quantityUnit: "%"
  assayResult: 4.1
- inputSmiles: "CNC(=O)c1cc(Oc2ccc(NC(=O)Nc3ccc(S(F)(F)(F)(F)F)cc3)c(F)c2)ccn1"
  quantityUnit: "%"
  assayResult: 3.4

----------
System: HUH7 (human hepatoma cell line)
Assay: Cell death detection, trypan blue exclusion assay, HUH7, in combination with AZD-6244
Type: cell-based
Conditions: HUH7, 6-day treatment, compound 0.5 μM, AZD-6244 0 μM
Tick class 1 if Cell Death (%) in combination with AZD-6244 is 2% or greater. Tick class 0 if Cell Death (%) in combination with AZD-6244 is less than 2%.

- compound: "CNC(=O)c1cc(Oc2ccc(NC(=O)Nc3cc(S(F)(F)(F)(F)F)ccc3Cl)c(F)c2)ccn1 [Example 6]"
  classLabel: "class 1"
- compound: "CNC(=O)c1cc(Oc2ccc(NC(=O)Nc3cccc(S(F)(F)(F)(F)F)c3)cc2)ccn1 [Example 1]"
  classLabel: "class 1"
- compound: "CNC(=O)c1cc(Oc2ccc(NC(=O)Nc3ccc(Cl)c(S(F)(F)(F)(F)F)c3)cc2)ccn1 [Example 3]"
  classLabel: "class 0"
- compound: "CNC(=O)c1cc(Oc2ccc(NC(=O)Nc3ccc(Cl)c(C(F)(F)F)c3)cc2)ccn1 [Sorafenib, reference compound]"
  classLabel: "class 0"
- compound: "CNC(=O)c1cc(Oc2ccc(NC(=O)Nc3ccc(S(F)(F)(F)(F)F)cc3)c(F)c2)ccn1 [Example 10]"
  classLabel: "class 0"
- compound: "CNC(=O)c1cc(Oc2ccc(NC(=O)Nc3cccc(S(F)(F)(F)(F)F)c3)c(F)c2)ccn1 [Example 2]"
  classLabel: "class 1"
- compound: "CNC(=O)c1cc(Oc2ccc(NC(=O)Nc3ccc(Cl)c(S(F)(F)(F)(F)F)c3)c(F)c2)ccn1 [Example 4]"
  classLabel: "class 1"

----------
Below: a set of entries, each annotated with reported inhibition at 0.1 µM.
Target: FLT3 (Homo sapiens, UniProt P36888)
Sequence (P36888 27-993): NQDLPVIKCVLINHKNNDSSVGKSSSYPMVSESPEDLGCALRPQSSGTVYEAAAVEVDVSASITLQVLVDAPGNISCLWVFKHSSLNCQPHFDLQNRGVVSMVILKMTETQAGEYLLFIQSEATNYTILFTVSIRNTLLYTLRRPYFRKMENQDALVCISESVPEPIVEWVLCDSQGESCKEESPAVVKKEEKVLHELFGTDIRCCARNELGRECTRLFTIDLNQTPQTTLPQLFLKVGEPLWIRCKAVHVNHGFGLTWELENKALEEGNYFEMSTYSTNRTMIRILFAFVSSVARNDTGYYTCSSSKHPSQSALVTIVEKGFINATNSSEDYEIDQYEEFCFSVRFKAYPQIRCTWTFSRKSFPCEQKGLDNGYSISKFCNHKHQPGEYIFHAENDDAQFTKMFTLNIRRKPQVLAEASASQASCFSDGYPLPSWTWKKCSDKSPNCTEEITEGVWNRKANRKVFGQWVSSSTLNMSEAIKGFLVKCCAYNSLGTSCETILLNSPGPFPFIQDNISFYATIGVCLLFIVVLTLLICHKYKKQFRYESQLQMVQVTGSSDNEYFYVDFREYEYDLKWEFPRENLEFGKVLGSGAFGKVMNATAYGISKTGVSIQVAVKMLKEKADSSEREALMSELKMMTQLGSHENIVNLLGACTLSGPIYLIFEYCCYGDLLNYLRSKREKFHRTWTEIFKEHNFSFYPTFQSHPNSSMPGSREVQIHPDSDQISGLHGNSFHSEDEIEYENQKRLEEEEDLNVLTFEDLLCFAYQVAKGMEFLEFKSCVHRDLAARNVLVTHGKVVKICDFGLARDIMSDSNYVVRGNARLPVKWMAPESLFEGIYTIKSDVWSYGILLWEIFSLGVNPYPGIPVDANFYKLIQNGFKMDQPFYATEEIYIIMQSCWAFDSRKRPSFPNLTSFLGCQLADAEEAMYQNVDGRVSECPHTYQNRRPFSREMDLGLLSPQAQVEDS
Assay: In vitro kinase assay (Invitrogen SelectScreen Profiling Service), FLT3
Type: biochemical
Settings: FLT3, 0.1 μM

- inputSmiles: "CNC(=O)c1cc(Oc2ccc(NC(=O)Nc3cccc(S(F)(F)(F)(F)F)c3)c(F)c2)ccn1"
  inhibition at 0.1 µM / %: 71
- inputSmiles: "CNC(=O)c1cc(Oc2ccc(NC(=O)Nc3ccc(Cl)c(S(F)(F)(F)(F)F)c3)cc2)ccn1"
  inhibition at 0.1 µM / %: 72
- inputSmiles: "CNC(=O)c1cc(Oc2ccc(NC(=O)Nc3ccc(Cl)c(S(F)(F)(F)(F)F)c3)c(F)c2)ccn1"
  inhibition at 0.1 µM / %: 51
- inputSmiles: "CNC(=O)c1cc(Oc2ccc(NC(=O)Nc3cccc(S(F)(F)(F)(F)F)c3)cc2)ccn1"
  inhibition at 0.1 µM / %: 85
